# credit: patent US5716797A

Please provide measured CK activity value for the entries that follow.
- System: creatine kinase (CK) in human serum
- assay.summary: CK activity measured with enzyme solutions containing SH compounds as CK reactivator, fresh and after 1 month of storage (Example 1 / Comparative Example 1)
- Format: biochemical
- test.parameters: Sample 1; enzyme solution stored at 10° C. for 1 month; TG 100, 2ME 26, 2MES 26, NAC 26, L-cysteine 6.5, GSH 12, TDG 5, DTT 6.5 mM

compound	measurement.name	result
O.O.OC[C@H]1O[C@@H](S)[C@H](O)[C@@H](O)[C@@H]1O.[Na].[Na]	CK activity value	0 IU/l
OCC(O)CS (stereo not shown)	CK activity value	183 IU/l
CC(=O)N[C@@H](CS)C(=O)O	CK activity value	184 IU/l

Lab note: next compound to report on.
Identify CK activity value associated with the compound N[C@@H](CS)C(=O)O 140 IU/l

###

- System: creatine kinase (CK) in human serum
- assay.summary: CK activity measured with enzyme solutions containing SH compounds as CK reactivator, fresh and after 1 month of storage (Example 1 / Comparative Example 1)
- Assay type: biochemical
- test.parameters: Sample 3; enzyme solution stored at 10° C. for 1 month; TG 100, 2ME 26, 2MES 26, NAC 26, L-cysteine 6.5, GSH 12, TDG 5, DTT 6.5 mM
Define the label as Y when CK activity value is strictly less than 100 IU/l and as N in all remaining cases.

Example results:
compound	assigned.class
CC(=O)N[C@@H](CS)C(=O)O [NAC, N-acetylcysteine]	N
N[C@@H](CS)C(=O)O [L-cysteine]	N
O=S(=O)(O)CCS [2MES, 2-mercaptoethanesulfonic acid]	N
OCCS [2ME, 2-mercaptoethanol]	N
OCC(O)CS (stereo not drawn) [TG, thioglycerol]	N

Does the reported CK activity value of the following compound sit strictly below 100 IU/l? O.O.OC[C@H]1O[C@@H](S)[C@H](O)[C@@H](O)[C@@H]1O.[Na].[Na] [TDG] Y

###

- tested.on: creatine kinase (CK) in human serum (Homo sapiens, UniProt P06732)
- Construct: Five fresh human serum samples were used; from tissue; host or cells: fresh human serum
- Sequence (P06732 whole entry): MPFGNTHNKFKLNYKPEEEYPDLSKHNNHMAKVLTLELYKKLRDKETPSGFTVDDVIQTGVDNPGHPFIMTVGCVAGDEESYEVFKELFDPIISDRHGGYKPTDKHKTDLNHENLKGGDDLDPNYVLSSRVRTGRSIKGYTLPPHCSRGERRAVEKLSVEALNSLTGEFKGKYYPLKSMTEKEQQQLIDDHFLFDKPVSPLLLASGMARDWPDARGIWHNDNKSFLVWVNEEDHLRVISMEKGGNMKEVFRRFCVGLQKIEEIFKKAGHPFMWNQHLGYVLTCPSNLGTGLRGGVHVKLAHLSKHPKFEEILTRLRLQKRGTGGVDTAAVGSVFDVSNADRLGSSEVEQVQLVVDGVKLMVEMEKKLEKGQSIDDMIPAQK
- assay.summary: Inhibitory effect of oxidized products of SH compounds on CK activity (HK/G6PDH UV method, NAC 26 mM as reactivator)
- Assay type: biochemical
- test.parameters: average of 5 samples; 5 mM SH compound oxidized product
Would you mind telling me the reported CK activity value, Average of each entry?
Give bare numbers, in IU/l..

Consider the following illustrative entries.
molecule	CK activity value, Average, IU/l.
Nc1cc(O)nc(SSc2nc(N)cc(O)n2)n1	217
O=c1ccnc(SSc2nccc(=O)[nH]2)[nH]1	213
O=S(=O)(O)CCSSCCS(=O)(=O)O	224

Consider the following items and state reported CK activity value, Average for each.
1. CC(=O)N[C@@H](CSSC[C@H](NC(C)=O)C(=O)O)C(=O)O
2. OCC(O)CSSCC(O)CO (stereo not shown)
3. Nc1nc(SSc2nc(N)nc3c2ncn3[C@@H]2O[C@H](CO)[C@@H](O)[C@H]2O)c2ncn([C@@H]3O[C@H](CO)[C@@H](O)[C@H]3O)c2n1
4. O[C@@H]1CSSC[C@H]1O (relative stereo)
5. OC[C@H]1O[C@@H](SS[C@@H]2O[C@H](CO)[C@@H](O)[C@H](O)[C@H]2O)[C@H](O)[C@@H](O)[C@@H]1O
6. c1ccc(SSc2ccccc2)cc1

1: 181; 2: 226; 3: 0; 4: 216; 5: 204; 6: 99

State recorded CK activity value, Average with creatine kinase (CK) in human serum (Homo sapiens, UniProt P06732), entry OCCSSCCO , no comment. 226

###

- tested.on: creatine kinase (CK) in human serum (Homo sapiens, UniProt P06732)
- Construct: Five fresh human serum samples were used; from tissue; host or cells: fresh human serum
- assay.summary: Inhibitory effect of oxidized products of SH compounds on CK activity (HK/G6PDH UV method, NAC 26 mM as reactivator)
- Format: biochemical
- test.parameters: Sample 5; 5 mM SH compound oxidized product, NAC 26 mM, 37° C.
Could you please report measured CK activity value for the items listed next?
Numbers only, in IU/l..

Sample records with CK activity value:
molecule	measurement.name	unit.text	numeric.result
OCCSSCCO	CK activity value	IU/l.	101
O[C@@H]1CSSC[C@H]1O (relative stereo)	CK activity value	IU/l.	99
O=c1ccnc(SSc2nccc(=O)[nH]2)[nH]1	CK activity value	IU/l.	97
O=S(=O)(O)CCSSCCS(=O)(=O)O	CK activity value	IU/l.	98

Now look at this one.
Write down CK activity value measured for item Nc1cc(O)nc(SSc2nc(N)cc(O)n2)n1 97

###

- Tested on: creatine kinase (CK) in human serum
- assay.summary: CK activity measured with enzyme solutions containing SH compounds as CK reactivator, fresh and after 1 month of storage (Example 1 / Comparative Example 1)
- Format: biochemical
- test.parameters: enzyme solution stored at 10° C. for 1 month; NAC just after preparation = 100%
Provide the reported CK activity, relative value of each item.
Give bare numbers, in %.

Hey, quick one: what's CK activity, relative value for each of these?
1. N[C@@H](CCC(=O)N[C@@H](CS)C(=O)NCC(=O)O)C(=O)O [GSH, reduced-form glutathione]
2. O=S(=O)(O)CCS [2MES, 2-mercaptoethanesulfonic acid]

[94.1, 99.9]

Batch of 2 compounds: report CK activity, relative value for each.
1. OCCS [2ME, 2-mercaptoethanol]
2. OCC(O)CS (centres unmarked) [TG, thioglycerol]

[102.8, 101.9]

Look up and report measured CK activity, relative value for this entry: O.O.OC[C@H]1O[C@@H](S)[C@H](O)[C@@H](O)[C@@H]1O.[Na].[Na] [TDG] 0.4

###

Field: log10 of CK activity value. Provide a value for each of the compounds that follow.
- Test system: creatine kinase (CK) in human serum
- assay.summary: CK activity measured with enzyme solutions containing SH compounds as CK reactivator, fresh and after 1 month of storage (Example 1 / Comparative Example 1)
- Assay type: biochemical
- test.parameters: Sample 2; enzyme solution stored at 20° C. for 1 month; TG 100, 2ME 26, 2MES 26, NAC 26, L-cysteine 6.5, GSH 12, TDG 5, DTT 6.5 mM
Base-10 log of CK activity value, unit IU/l.

compound	tested.on	measurement.name	numeric.result
N[C@@H](CS)C(=O)O	creatine kinase (CK) in human serum	log10 of CK activity value	2.24

// input: 4 compounds below; output: log10 of CK activity value for each
1. OCC(O)CS (centres unmarked)
2. O=S(=O)(O)CCS
3. OCCS
4. O.O.OC[C@H]1O[C@@H](S)[C@H](O)[C@@H](O)[C@@H]1O.[Na].[Na]

1. 2.74
2. 2.73
3. 2.75
4. 0.60
